SYSTEM NAME: Glutamate NMDA receptor; GRIN1/GRIN2B (Homo sapiens, UniProt Q05586+Q13224)
Sequence (Q13224 whole entry, other chains not shown): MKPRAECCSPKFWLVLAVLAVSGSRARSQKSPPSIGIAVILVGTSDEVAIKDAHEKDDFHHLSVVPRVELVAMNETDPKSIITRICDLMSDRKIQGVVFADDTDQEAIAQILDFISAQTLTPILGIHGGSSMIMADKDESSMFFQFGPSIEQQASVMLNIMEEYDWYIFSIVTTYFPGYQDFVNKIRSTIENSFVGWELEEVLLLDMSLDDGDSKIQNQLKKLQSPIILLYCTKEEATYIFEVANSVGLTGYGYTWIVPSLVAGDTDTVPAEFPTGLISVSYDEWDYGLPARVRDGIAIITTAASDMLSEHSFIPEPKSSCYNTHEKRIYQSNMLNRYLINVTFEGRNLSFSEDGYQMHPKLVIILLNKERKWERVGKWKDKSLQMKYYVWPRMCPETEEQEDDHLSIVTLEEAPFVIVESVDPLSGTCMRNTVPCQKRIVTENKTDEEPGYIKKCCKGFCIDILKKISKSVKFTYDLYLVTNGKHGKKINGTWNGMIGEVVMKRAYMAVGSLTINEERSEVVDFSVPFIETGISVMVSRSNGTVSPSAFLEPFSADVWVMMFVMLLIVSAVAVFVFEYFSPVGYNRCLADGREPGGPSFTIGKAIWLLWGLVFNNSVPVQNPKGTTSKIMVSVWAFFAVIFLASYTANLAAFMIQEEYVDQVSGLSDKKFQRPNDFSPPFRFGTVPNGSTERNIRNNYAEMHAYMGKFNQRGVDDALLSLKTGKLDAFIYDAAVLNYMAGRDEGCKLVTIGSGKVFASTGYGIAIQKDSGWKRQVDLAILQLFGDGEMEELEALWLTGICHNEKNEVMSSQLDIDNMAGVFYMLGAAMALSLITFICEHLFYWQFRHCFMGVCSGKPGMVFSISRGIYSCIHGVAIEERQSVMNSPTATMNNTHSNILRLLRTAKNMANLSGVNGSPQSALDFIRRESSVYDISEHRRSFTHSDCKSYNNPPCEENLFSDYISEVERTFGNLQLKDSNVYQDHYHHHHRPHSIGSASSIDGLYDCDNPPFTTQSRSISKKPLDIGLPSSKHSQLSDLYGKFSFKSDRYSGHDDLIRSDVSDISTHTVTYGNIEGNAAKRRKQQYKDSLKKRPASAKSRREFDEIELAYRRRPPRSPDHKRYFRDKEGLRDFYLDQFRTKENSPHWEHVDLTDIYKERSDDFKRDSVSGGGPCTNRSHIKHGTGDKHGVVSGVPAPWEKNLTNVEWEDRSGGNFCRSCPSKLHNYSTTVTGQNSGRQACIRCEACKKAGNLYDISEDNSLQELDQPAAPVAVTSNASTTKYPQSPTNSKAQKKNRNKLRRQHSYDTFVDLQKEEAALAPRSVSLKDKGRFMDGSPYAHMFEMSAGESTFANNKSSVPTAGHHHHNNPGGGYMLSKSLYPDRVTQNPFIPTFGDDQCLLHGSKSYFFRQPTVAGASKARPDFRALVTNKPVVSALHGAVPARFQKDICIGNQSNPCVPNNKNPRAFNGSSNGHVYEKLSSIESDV
ASSAY NAME: Inhibition of the response to glutamate/glycine in NR1a/NR2B expressing cells
PARAMETER: IC50 (nM)

1) N=C(/C=C/c1ccccc1)NCc1ccccc1    70

---

Here, each record is paired with measured log10(Ki) data.
SYSTEM NAME: Glutamate NMDA receptor; GRIN1/GRIN2B (Homo sapiens, UniProt Q05586+Q13224)
ASSAY NAME: Displacement of [3H]ifenprodil binding to recombinant human NR1a/NR2B receptors expressed in L(tk-) cells
PARAMETER: log10(Ki) (log10 of the value in nM)

1) COc1ccccc1C/N=C(\N)c1ccc2ccccc2c1    0.11
2) N=C(NCc1ccccc1)c1ccc2ccccc2c1    1.51
3) N=C(/C=C/c1ccccc1)NCc1cccc(C(F)(F)F)c1    1.49
4) COc1cccc(C/N=C(N)/C=C/c2ccccc2)c1    0.28
5) N=C(/C=C/c1ccccc1)NCc1ccc(Cl)cc1    1.89
6) C[C@@H](CN1CCC(Cc2ccccc2)CC1)[C@@H](O)c1ccc(O)cc1    1.00
7) N=C(/C=C/c1ccc(F)cc1)NCc1ccccc1    0.76
8) N=C(CCc1ccccc1)NCc1ccccc1    2.72
9) CCOc1ccccc1C/N=C(N)/C=C/c1ccccc1    -0.30
10) N=C(/C=C/c1ccc(Cl)cc1)NCc1ccccc1    1.72
11) N=C(/C=C/c1ccccc1)NCc1cccc(Cl)c1    -0.10
12) N=C(/C=C/c1ccccc1Cl)NCc1ccccc1    1.97
13) N=C(/C=C/c1ccc(F)c(F)c1)NCc1ccccc1    0.23

---

SYSTEM NAME: Glutamate NMDA receptor; GRIN1/GRIN2B (Homo sapiens, UniProt Q05586+Q13224)
ASSAY NAME: Displacement of [3H]ifenprodil binding to recombinant human NR1a/NR2B receptors expressed in L(tk-) cells
pKi: −log10 of the molar value.
PARAMETER: pKi

1) N=C(NCc1cccc(Cl)c1)c1ccc2ccccc2c1    8.80
2) N=C(/C=C/c1ccccc1)NCc1ccccc1OC(F)(F)F    9.22
3) N=C(/C=C/C1CCCCC1)NCc1ccccc1    7.72
4) N=C(NCCc1ccccc1)c1ccccc1    7.26
5) N=C(NCc1ccccc1Cl)c1ccc2ccccc2c1    8.14
6) N=C(/C=C/c1ccccc1)NCc1cc(Cl)cc(Cl)c1    8.85
7) NC(=NCc1ccccc1)c1ccccc1    5.00
8) N=C(/C=C/c1ccccc1)NCc1cccc(Cl)c1Cl    8.44
9) N=C(/C=C/c1ccccc1)NCc1ccccc1C(F)(F)F    8.85
10) N=C(/C=C/c1ccccc1)NCc1ccccc1Cl    9.00
11) N=C(/C=C/c1cccc(Cl)c1)NCc1ccccc1    7.92
12) N=C(/C=C/c1ccccc1)NCc1cc(Cl)ccc1Cl    8.57
13) N=C(/C=C/c1ccccc1)NCCc1ccccc1    7.01
14) N=C(/C=C/c1ccccc1)NCCCc1ccccc1    6.92
